# credit: ChEMBL document CHEMBL3856224

Here's a batch of compounds along with measured log10(IC50) for Cholinesterase (Homo sapiens, UniProt P06276).
Endpoint: log10(IC50) (log10 of the value in nM)

1. c1ccc2c(NCCCCCCCNc3c4c(nc5ccccc35)CCCC4)c3c(nc2c1)CCCC3 | 1.58
2. CN1c2ccccc2C(NCCCCCCC(=O)NCCCCCCNc2c3c(nc4ccccc24)CCCC3)c2ccc(Cl)cc2S1(=O)=O (stereo not given) | 0.58
3. CN1c2ccccc2C(NCCCCCCC(=O)NCCNc2c3c(nc4ccccc24)CCCC3)c2ccc(Cl)cc2S1(=O)=O (stereo not given) | 1.35
4. CN1c2ccccc2C(NCCCCCCC(=O)NCCCCCCCCNc2c3c(nc4cc(Cl)ccc24)CCCC3)c2ccc(Cl)cc2S1(=O)=O (stereo not given) | 2.66
5. CN1c2ccccc2C(NCCCCCCC(=O)NCCCCCNc2c3c(nc4cc(Cl)ccc24)CCCC3)c2ccc(Cl)cc2S1(=O)=O (stereo not given) | 1.48
6. CN1c2ccccc2C(NCCCCCCC(=O)NCCCCCCCCNc2c3c(nc4ccccc24)CCCC3)c2ccc(Cl)cc2S1(=O)=O (stereo not given) | 0.61
7. CN1c2ccccc2C(NCCCCCCC(=O)NCCCCCCCNc2c3c(nc4cc(Cl)ccc24)CCCC3)c2ccc(Cl)cc2S1(=O)=O (stereo not given) | 1.73
8. CN1c2ccccc2C(NCCCCCCC(=O)NCCCCCCCNc2c3c(nc4ccccc24)CCCC3)c2ccc(Cl)cc2S1(=O)=O (stereo not given) | 0.81
9. CN1c2ccccc2C(NCCCCCCC(=O)NCCCCNc2c3c(nc4ccccc24)CCCC3)c2ccc(Cl)cc2S1(=O)=O (stereo not given) | 0.56
10. CN1c2ccccc2C(NCCCCCCC(=O)NCCCCCCNc2c3c(nc4cc(Cl)ccc24)CCCC3)c2ccc(Cl)cc2S1(=O)=O (stereo not given) | 1.51
11. CN1c2ccccc2C(NCCCCCCC(=O)NCCCNc2c3c(nc4ccccc24)CCCC3)c2ccc(Cl)cc2S1(=O)=O (stereo not given) | 1.06
12. CN1c2ccccc2C(NCCCCCCC(=O)NCCNc2c3c(nc4cc(Cl)ccc24)CCCC3)c2ccc(Cl)cc2S1(=O)=O (stereo not given) | 1.67
13. CN1c2ccccc2C(NCCCCCCC(=O)NCCCCCNc2c3c(nc4ccccc24)CCCC3)c2ccc(Cl)cc2S1(=O)=O (stereo not given) | 0.84
14. CN1c2ccccc2C(NCCCCCCC(=O)NCCCCNc2c3c(nc4cc(Cl)ccc24)CCCC3)c2ccc(Cl)cc2S1(=O)=O (stereo not given) | 1.68
15. CN1c2ccccc2C(NCCCCCCC(=O)NCCCNc2c3c(nc4cc(Cl)ccc24)CCCC3)c2ccc(Cl)cc2S1(=O)=O (stereo not given) | 1.72

---

Target system: Acetylcholinesterase (Rattus norvegicus, UniProt P37136)
Sequence (P37136 whole entry): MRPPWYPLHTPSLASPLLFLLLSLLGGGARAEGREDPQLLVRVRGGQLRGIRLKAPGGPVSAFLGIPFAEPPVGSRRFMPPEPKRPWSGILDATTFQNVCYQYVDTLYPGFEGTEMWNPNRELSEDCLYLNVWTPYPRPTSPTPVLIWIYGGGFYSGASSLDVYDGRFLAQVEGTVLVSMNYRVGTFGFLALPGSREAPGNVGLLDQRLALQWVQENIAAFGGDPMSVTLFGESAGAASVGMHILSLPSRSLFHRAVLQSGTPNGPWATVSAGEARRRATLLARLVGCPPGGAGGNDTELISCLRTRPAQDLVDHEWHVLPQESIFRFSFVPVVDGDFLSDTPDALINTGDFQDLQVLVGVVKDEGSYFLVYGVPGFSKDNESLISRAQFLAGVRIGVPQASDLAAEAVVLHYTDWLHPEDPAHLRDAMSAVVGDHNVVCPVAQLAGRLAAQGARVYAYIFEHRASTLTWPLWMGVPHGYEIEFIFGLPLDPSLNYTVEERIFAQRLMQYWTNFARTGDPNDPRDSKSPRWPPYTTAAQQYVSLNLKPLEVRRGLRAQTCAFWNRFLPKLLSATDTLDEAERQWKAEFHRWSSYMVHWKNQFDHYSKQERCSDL
pIC50: −log10 of the molar value.
Entries and their pIC50
Endpoint: pIC50

1. CN1c2ccccc2C(NCCCCCCC(=O)NCCCNc2c3c(nc4cc(Cl)ccc24)CCCC3)c2ccc(Cl)cc2S1(=O)=O (configuration not stated) | 8.17
2. CN1c2ccccc2C(NCCCCCCC(=O)NCCCCCCNc2c3c(nc4ccccc24)CCCC3)c2ccc(Cl)cc2S1(=O)=O (configuration not stated) | 6.94
3. CN1c2ccccc2C(NCCCCCCC(=O)NCCCCNc2c3c(nc4ccccc24)CCCC3)c2ccc(Cl)cc2S1(=O)=O (configuration not stated) | 6.81
4. CN1c2ccccc2C(NCCCCCCC(=O)NCCCCCNc2c3c(nc4ccccc24)CCCC3)c2ccc(Cl)cc2S1(=O)=O (configuration not stated) | 6.97
5. CN1c2ccccc2C(NCCCCCCC(=O)NCCCCCCCNc2c3c(nc4cc(Cl)ccc24)CCCC3)c2ccc(Cl)cc2S1(=O)=O (configuration not stated) | 6.88
6. CN1c2ccccc2C(NCCCCCCC(=O)NCCCCCCCNc2c3c(nc4ccccc24)CCCC3)c2ccc(Cl)cc2S1(=O)=O (configuration not stated) | 7.19
7. CN1c2ccccc2C(NCCCCCCC(=O)NCCCCCCNc2c3c(nc4cc(Cl)ccc24)CCCC3)c2ccc(Cl)cc2S1(=O)=O (configuration not stated) | 7.41
